B1: CPEB3 Ribozyme (parent)
chain: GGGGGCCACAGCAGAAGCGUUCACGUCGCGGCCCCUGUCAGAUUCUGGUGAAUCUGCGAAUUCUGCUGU

- Variants of: B1
- protocolNotes: self-cleavage, relative activity (ratio to wild type); higher = more cleavage; co-transcriptional
The label depends only on self-cleavage: True if it is at least 0.9, False if it is smaller.

Exercise: Quick check: does A23C A42U have self-cleavage greater than or equal to 0.9?
Key: False
